Ref: patent US20120190620A1

System: HeLa cells
Experimental protocol: Purinosome dynamics DMR screen, sequential order molecule, TBB, DMAT
Assay type: cell-based, human
Condition parameters: agonist library; order agonist, TBB, DMAT; FIG. 4
Experimental: A library of agonists for various different GPCRs were used to individually pretreat a confluent layer of Hela cells for about one hour, before sequential stimulation with TBB and DMAT, respectively. The responses were monitored using Epic® system. […] The upstream signaling pathways linking to the purinosome is unknown at the present time. […] The cellular responses to each agonist were recorded for about 1 hour, and used to determine the functional expression of their corresponding cognate receptor(s).
Readout type: modulation of the TBB DMR signal

Take a look at these entries with their results.
Molecule: Nc1ncnc2c1ncn2[C@@H]1O[C@H](COP(=O)(O)OP(=O)(O)OP(=O)(O)O)[C@@H](O)[C@H]1O [ATP]
modulation of the TBB DMR signal: selectively potentiate

Molecule: CS(=O)(=O)Nc1c(O)ccc2c1CCCC2C1=NCCN1 (stereo not shown) [A61603]
modulation of the TBB DMR signal: selectively potentiate

Molecule: CNC[C@H](O)c1cccc(O)c1 [phenylephrine, (R)-(−)-phenylephrine]
modulation of the TBB DMR signal: selectively potentiate

Molecule: CCCCC[C@H](O)/C=C/[C@H]1C(=O)C[C@H](O)[C@@H]1C/C=C\CCCC(=O)O [PGD2, prostaglandin D2]
modulation of the TBB DMR signal: selectively suppress

Molecule: CCCCCCCCCCCCC/C=C/[C@@H](O)[C@@H](N)COP(=O)(O)O [S1P, Sphingosine-1-phosphate]
modulation of the TBB DMR signal: selectively potentiate

Molecule: Clc1cccc(Cl)c1N=C1NCCN1 [clonidine]
modulation of the TBB DMR signal: selectively potentiate

Note to self: modulation of the TBB DMR signal recorded for O=c1ccn([C@@H]2O[C@H](COP(=O)(O)OP(=O)(O)O)[C@@H](O)[C@H]2O)c(=O)[nH]1 [UDP] was selectively potentiate

Note to self: modulation of the TBB DMR signal recorded for CCCCC[C@H](O)/C=C/[C@H]1[C@H](O)CC(=O)[C@@H]1C/C=C\CCCC(=O)O [PGE2, peostaglandin E2] was selectively suppress

Note to self: modulation of the TBB DMR signal recorded for CNC[C@H](O)c1ccc(O)c(O)c1 [epinephrine, Epinephrine] was selectively potentiate

Note to self: modulation of the TBB DMR signal recorded for NCCc1ccc(O)c(O)c1 [dopamine] was selectively potentiate
